Assay: Tmax in rat at 75 mg/kg, po administered as MBP formulation
Format: ADME, organism-based
Set-up: dose 75 mg/kg, route oral
Conditions: in vivo
READOUT KIND: Tmax (h)
The figure you give is taken to be in h; do not add the unit.

Ask: Value lookup for Tmax; key = COC(=O)c1c(Cc2ccc(C(=O)N[C@@H]3[C@@H]4C[C@@H]5C[C@H]3C[C@@](O)(C5)C4)cc2)c(=O)c2cccnc2n1-c1ccccc1
Reply: 4

---

Assay: AUC (0 to 24 hrs) in C57 mouse at 5 mg/kg, iv
Assay type: ADME, organism-based
Set-up: time < 24 hr, dose 5 mg/kg, route intravenous
Conditions: plasma
READOUT KIND: AUC(0-t) at 24 h (ng·h/mL)
The figure you give is taken to be in ng·h/mL; do not add the unit.

Ask: Value lookup for AUC(0-t) at 24 h; key = COC(=O)c1c(Cc2ccc(C(=O)N[C@@H]3[C@@H]4C[C@@H]5C[C@H]3C[C@@](O)(C5)C4)cc2)c(=O)c2cccnc2n1-c1ccccc1
Reply: 9890

---

Assay: Cmax in rat at 30 mg/kg, po administered as DMSO formulation
Type: ADME, organism-based
Parameters: dose 30 mg/kg, route oral
Settings: in vivo
READOUT KIND: Cmax (ng/mL)
The figure you give is taken to be in ng/mL; do not add the unit.

Ask: Value lookup for Cmax; key = COC(=O)c1c(Cc2ccc(C(=O)N[C@@H]3[C@@H]4C[C@@H]5C[C@H]3C[C@@](O)(C5)C4)cc2)c(=O)c2cccnc2n1-c1ccccc1
Reply: 8030

---

Assay: Clearance in C57 mouse at 5 mg/kg, iv administered as DMSO formulation
Assay type: ADME, organism-based
Set-up: dose 5 mg/kg, route intravenous
Settings: in vivo
READOUT KIND: clearance (mL/min/kg)
The figure you give is taken to be in mL/min/kg; do not add the unit.

Ask: Value lookup for clearance; key = COC(=O)c1c(Cc2ccc(C(=O)N[C@@H]3[C@@H]4C[C@@H]5C[C@H]3C[C@@](O)(C5)C4)cc2)c(=O)c2cccnc2n1-c1ccccc1
Reply: 8.4

---

Experiment: Drug uptake in C57 mouse liver at 30 mg/kg, po measured at 8 hrs
Type: ADME, organism-based
Design: dose 30 mg/kg, route oral
Settings: read-out: Drug uptake
Each record here notes measured concentration at 8 h.
Mention the unit after the number when you answer.

In the examples that follow, each entry is paired with its recorded concentration at 8 h.
smiles_code=COC(=O)c1c(Cc2ccc(C(=O)N[C@@H]3[C@@H]4C[C@@H]5C[C@H]3C[C@@](O)(C5)C4)cc2)c(=O)c2cccnc2n1-c1ccccc1 readout_kind="concentration at 8 h" result="2.96 µM"
smiles_code=COC(=O)c1c(Cc2ccc(C(=O)N[C@H]3CC[C@H](O)CC3)cc2)c(=O)c2cccnc2n1-c1ccccc1 readout_kind="concentration at 8 h" result="5.57 µM"
smiles_code=COC(=O)c1c(Cc2ccc(C(=O)NC3(CO)CC3)cc2)c(=O)c2cccnc2n1-c1ccccc1 readout_kind="concentration at 8 h" result="4.49 µM"
smiles_code=COC(=O)c1c(Cc2ccc(C(=O)NCC(C)(C)O)cc2)c(=O)c2cccnc2n1-c1ccccc1 readout_kind="concentration at 8 h" result="4 µM"
smiles_code=COC(=O)c1c(Cc2ccc(C(=O)N[C@H](CO)C(C)(C)C)cc2)c(=O)c2cccnc2n1-c1ccccc1 readout_kind="concentration at 8 h" result="0.23 µM"

Then this molecule:
Ask: Value lookup for concentration at 8 h; key = COC(=O)c1c(Cc2ccc(C(=O)NC(C)(C)CO)cc2)c(=O)c2cccnc2n1-c1ccccc1
Reply: 2.49 µM
